All values here come from paper PMC2756588.

Listing of entries alongside the reported SPOT intensity.
- target: T1, Hof1, Q05080
- T1 sequence (Q05080 590-669, looked up): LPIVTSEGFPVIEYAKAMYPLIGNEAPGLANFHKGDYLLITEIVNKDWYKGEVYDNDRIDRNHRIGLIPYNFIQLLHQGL
- run description: SPOT array
- condition info: median of control spots 4086
readout name: SPOT intensity

binder=FPPKRKPLLRPQRSD readout_name="SPOT intensity" meas_value=4
binder=KRKRFNLLLPKPYLT readout_name="SPOT intensity" meas_value=4
binder=RLPAPPPPPRRGPAP readout_name="SPOT intensity" meas_value=5
binder=SKIRPTPRKPSRMAT readout_name="SPOT intensity" meas_value=8
binder=RKRRTHLRLPLIRSN readout_name="SPOT intensity" meas_value=0
binder=WRPRIVPILPYITRL readout_name="SPOT intensity" meas_value=770
binder=RRRDFGAPANKRPRR readout_name="SPOT intensity" meas_value=0
binder=MFLISPPASPPPEFD readout_name="SPOT intensity" meas_value=1
binder=MKRSRPSRSIPYTTP readout_name="SPOT intensity" meas_value=0
